Bridge positions count the residues as written; N and C are the ends. Square brackets hold non-standard residues; d marks the D form. Peptide text beside a SMILES is read from it.
Reported IC50 values, Somatostatin receptor type 2 (Homo sapiens, UniProt P30874).
measurement-label: IC50 (nM)

[[record]]
compound = "C[C@@H](O)[C@@H]1NC(=O)[C@H](CCCCN)NC(=O)[C@@H](Cc2c[nH]c3ccccc23)NC(=O)[C@H](Cc2ccccc2)NC(=O)[C@H](Cc2ccccc2)NC(=O)[C@@H](N)CSSC[C@@H](C(=O)O)NC(=O)[C@H](Cc2ccccc2)NC1=O (H-CFF[dW]KTFC-OH; disulfide 1-8)"
target_desc = "Somatostatin receptor type 2 (Homo sapiens, UniProt P30874)"
measurement_label = "IC50"
quantity_unit = "nM"
comparative_sign = "="
value_observed = 41

[[record]]
compound = "C[C@@H]1NC(=O)[C@H](Cc2ccccc2)NC(=O)[C@@H](NC(=O)[C@@H](N)Cc2ccc(O)c(I)c2)CSSC[C@@H](C(=O)O)NC(=O)[C@H](Cc2ccccc2)NC(=O)[C@H]([C@@H](C)O)NC(=O)[C@H](CCCCN)NC(=O)[C@H](Cc2c[nH]c3ccccc23)NC1=O"
target_desc = "Somatostatin receptor type 2 (Homo sapiens, UniProt P30874)"
measurement_label = "IC50"
quantity_unit = "nM"
comparative_sign = ">"
value_observed = 1000

[[record]]
compound = "C[C@@H]1NC(=O)[C@H](Cc2ccccc2)NC(=O)[C@@H](NC(=O)[C@@H](N)Cc2ccc(O)cc2)CSSC[C@@H](C(=O)O)NC(=O)[C@H](Cc2ccccc2)NC(=O)[C@H]([C@@H](C)O)NC(=O)[C@H](CCCCN)NC(=O)[C@@H]([C@@H](C)c2c[nH]c3ccccc23)NC1=O"
target_desc = "Somatostatin receptor type 2 (Homo sapiens, UniProt P30874)"
measurement_label = "IC50"
quantity_unit = "nM"
comparative_sign = "="
value_observed = 46

[[record]]
compound = "C[C@@H](O)[C@@H]1NC(=O)[C@H](CCCCN)NC(=O)[C@H](Cc2c[nH]c3ccccc23)NC(=O)[C@H](Cc2ccccc2)NC(=O)[C@H](Cc2ccccc2)NC(=O)[C@@H](N)CSSC[C@@H](C(=O)O)NC(=O)[C@H](Cc2ccccc2)NC1=O (H-CFFWKTFC-OH; disulfide 1-8)"
target_desc = "Somatostatin receptor type 2 (Homo sapiens, UniProt P30874)"
measurement_label = "IC50"
quantity_unit = "nM"
comparative_sign = "="
value_observed = 130


###

- target-desc: Somatostatin receptor type 3 (Homo sapiens)
- Sequence (P32745 whole entry): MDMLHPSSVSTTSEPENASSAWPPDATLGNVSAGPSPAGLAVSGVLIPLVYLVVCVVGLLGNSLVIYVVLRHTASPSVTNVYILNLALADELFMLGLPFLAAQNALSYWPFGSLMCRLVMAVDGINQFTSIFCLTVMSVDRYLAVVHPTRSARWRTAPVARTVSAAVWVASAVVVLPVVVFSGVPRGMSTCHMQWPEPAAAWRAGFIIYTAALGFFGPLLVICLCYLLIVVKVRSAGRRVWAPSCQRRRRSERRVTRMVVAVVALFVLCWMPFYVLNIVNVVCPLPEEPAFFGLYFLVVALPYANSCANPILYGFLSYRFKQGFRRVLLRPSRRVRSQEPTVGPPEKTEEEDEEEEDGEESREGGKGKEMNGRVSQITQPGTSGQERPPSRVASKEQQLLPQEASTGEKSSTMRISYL
Numbered stars: 1 amine (or outer) side, 2 acyl side, 3 side chain; on linkers, the order of the positions; unused ones are H or OH. Bridge positions count the residues as written; N and C are the ends. Square brackets hold non-standard residues; d marks the D form. Peptide text beside a SMILES is read from it. X3 = C[C@H](c1c[nH]c2ccccc12)[C@@H](N[*:1])C(=O)[*:2]; Trp(βS-Me) = C[C@@H](c1c[nH]c2ccccc12)[C@H](N)C(=O)O
Here, each record is paired with measured IC50 data.
measurement-label: IC50

[[record]]
compound = "C[C@@H](O)[C@@H]1NC(=O)[C@H](CCCCN)NC(=O)[C@@H](Cc2c[nH]c3ccccc23)NC(=O)[C@H](Cc2ccccc2)NC(=O)[C@H](Cc2ccccc2)NC(=O)[C@@H](N)CSSC[C@@H](C(=O)O)NC(=O)[C@H](Cc2ccccc2)NC1=O (H-CFF[dW]KTFC-OH; disulfide 1-8)"
measurement_label = "IC50"
value_observed = "13 nM"

[[record]]
compound = "C[C@@H](O)[C@@H]1NC(=O)[C@H](CCCCN)NC(=O)[C@H]([C@@H](C)c2c[nH]c3ccccc23)NC(=O)[C@H](Cc2ccccc2)NC(=O)[C@H](Cc2ccccc2)NC(=O)[C@@H](NC(=O)[C@@H](N)Cc2ccc(O)cc2)CSSC[C@@H](C(=O)O)NC(=O)[C@H](Cc2ccccc2)NC1=O (H-YCFF[Trp(βS-Me)]KTFC-OH; disulfide 2-9)"
measurement_label = "IC50"
value_observed = "116 nM"

[[record]]
compound = "C[C@@H](O)[C@@H]1NC(=O)[C@H](CCCCN)NC(=O)[C@H](Cc2c[nH]c3ccccc23)NC(=O)[C@H](Cc2ccc(N)cc2)NC(=O)[C@H](Cc2ccccc2)NC(=O)[C@@H](N)CSSC[C@@H](C(=O)O)NC(=O)[C@H](Cc2ccccc2)NC1=O"
measurement_label = "IC50"
value_observed = "> 1000 nM"

[[record]]
compound = "C[C@H](c1c[nH]c2ccccc12)[C@H]1NC(=O)[C@H](Cc2ccccc2)NC(=O)[C@H](Cc2ccccc2)NC(=O)[C@@H](N)CSSC[C@@H](C(=O)O)NC(=O)[C@H](Cc2ccccc2)NC(=O)[C@H]([C@@H](C)O)NC(=O)[C@H](CCCCN)NC1=O (H-CFF[X3]KTFC-OH; disulfide 1-8)"
measurement_label = "IC50"
value_observed = "53 nM"

[[record]]
compound = "C[C@@H](O)[C@@H]1NC(=O)[C@H](CCCCN)NC(=O)[C@H](Cc2c[nH]c3ccccc23)NC(=O)[C@H](Cc2ccccc2)NC(=O)[C@H](Cc2ccccc2)NC(=O)[C@@H](NC(=O)[C@@H](N)Cc2ccc(O)cc2)CSSC[C@@H](C(=O)O)NC(=O)[C@H](Cc2ccccc2)NC1=O (H-YCFFWKTFC-OH; disulfide 2-9)"
measurement_label = "IC50"
value_observed = "57 nM"

[[record]]
compound = "C[C@@H](O)[C@@H]1NC(=O)[C@H](CCCCN)NC(=O)[C@H]([C@@H](C)c2c[nH]c3ccccc23)NC(=O)[C@H](Cc2ccccc2)NC(=O)[C@H](Cc2ccccc2)NC(=O)[C@@H](N)CSSC[C@@H](C(=O)O)NC(=O)[C@H](Cc2ccccc2)NC1=O (H-CFF[Trp(βS-Me)]KTFC-OH; disulfide 1-8)"
measurement_label = "IC50"
value_observed = "330 nM"

